# Tested on: A2 adenosine receptor
# settings: EC50-SQPR divided by EC50-CF; >1 indicates selectivity for A2 adenosine receptor
This listing pairs compounds with measured Selectivity (SQPR/CF).

The following compounds have reported results that may help.
{"molecule-smiles": "CC(=NNc1nc(N)c2ncn([C@@H]3O[C@H](CO)[C@@H](O)[C@H]3O)c2n1)c1ccc(F)cc1", "assay-target": "A2 adenosine receptor", "Selectivity (SQPR/CF)": "1,822"}
{"molecule-smiles": "Nc1nc(NN=Cc2cccnc2)nc2c1ncn2[C@@H]1O[C@H](CO)[C@@H](O)[C@H]1O", "assay-target": "A2 adenosine receptor", "Selectivity (SQPR/CF)": "2,657"}
{"molecule-smiles": "Nc1nc(NN=Cc2ccccn2)nc2c1ncn2[C@@H]1O[C@H](CO)[C@@H](O)[C@H]1O", "assay-target": "A2 adenosine receptor", "Selectivity (SQPR/CF)": "42,000"}

Moving on to another compound below.
For the record CC(=NNc1nc(N)c2ncn([C@@H]3O[C@H](CO)[C@@H](O)[C@H]3O)c2n1)c1ccccc1 , what value of Selectivity (SQPR/CF) is listed for A2 adenosine receptor?
380

###

# assay-target: UniProt P46616
# settings: -LOG EC50 A2, BIOASSAY RESULTS table, A2
observable: EC50 (nM)

The following molecules have reported results that may help.
{"molecule": "CCCCCC=NNc1nc(N)c2ncn([C@@H]3O[C@H](CO)[C@@H](O)[C@H]3O)c2n1 [1-Pent, H]", "EC50 [nM]": 1.02}
{"molecule": "Nc1nc(NN=CC2CCCCC2)nc2c1ncn2[C@@H]1O[C@H](CO)[C@@H](O)[C@H]1O [Example 3]", "EC50 [nM]": 0.257}

I: Nc1nc(NN=Cc2ccc(F)cc2)nc2c1ncn2[C@@H]1O[C@H](CO)[C@@H](O)[C@H]1O [Example 2]
II: Nc1nc(NN=Cc2ccc3ccccc3c2)nc2c1ncn2[C@@H]1O[C@H](CO)[C@@H](O)[C@H]1O [Example 4]
III: NNc1nc(N)c2ncn([C@@H]3O[C@H](CO)[C@@H](O)[C@H]3O)c2n1 [Example 8, reference compound]
IV: CC(C)CCC=NNc1nc(N)c2ncn([C@@H]3O[C@H](CO)[C@@H](O)[C@H]3O)c2n1 [3-Me-1-Bu, H]
List from greatest to least EC50. Put the labels in the requested order and list them out.
III, II, I, IV

###

# assay-target: A2 adenosine receptor (Cavia porcellus, UniProt P46616)
# Sequence (P46616 whole entry, the tested form may be a part): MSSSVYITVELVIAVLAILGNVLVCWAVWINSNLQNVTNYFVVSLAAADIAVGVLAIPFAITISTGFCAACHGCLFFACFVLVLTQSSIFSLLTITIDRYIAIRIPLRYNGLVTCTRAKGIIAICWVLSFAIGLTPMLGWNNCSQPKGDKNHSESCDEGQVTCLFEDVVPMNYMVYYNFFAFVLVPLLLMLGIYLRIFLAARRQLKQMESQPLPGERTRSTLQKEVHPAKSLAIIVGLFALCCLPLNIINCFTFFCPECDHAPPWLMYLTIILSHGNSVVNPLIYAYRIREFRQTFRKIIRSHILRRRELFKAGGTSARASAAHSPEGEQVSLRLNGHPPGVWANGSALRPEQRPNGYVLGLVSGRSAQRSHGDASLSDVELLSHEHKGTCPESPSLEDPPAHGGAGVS
# settings: EC50 -CF, coronary vasodilation, perfused guinea pig heart paced at 260 beats/min
pEC50: −log10 of the molar value.
observable: pEC50

{"compound": "Nc1nc(NN=Cc2cccnc2)nc2c1ncn2[C@@H]1O[C@H](CO)[C@@H](O)[C@H]1O", "pEC50": 7.82}
{"compound": "NNc1nc(N)c2ncn([C@@H]3O[C@H](CO)[C@@H](O)[C@H]3O)c2n1 [Example 8, reference compound]", "pEC50": 7.09}

P: Nc1nc(NN=Cc2ccncc2)nc2c1ncn2[C@@H]1O[C@H](CO)[C@@H](O)[C@H]1O
Q: Nc1nc(NN=Cc2ccc3ccccc3c2)nc2c1ncn2[C@@H]1O[C@H](CO)[C@@H](O)[C@H]1O
Could you determine which record has the numerically smaller pEC50? Candidates: P and Q Answer by stating the label of the chosen item.
P

I: CC(=NNc1nc(N)c2ncn([C@@H]3O[C@H](CO)[C@@H](O)[C@H]3O)c2n1)c1ccc(F)cc1
II: CC(=NNc1nc(N)c2ncn([C@@H]3O[C@H](CO)[C@@H](O)[C@H]3O)c2n1)c1ccccc1
III: Nc1nc(NN=Cc2ccccn2)nc2c1ncn2[C@@H]1O[C@H](CO)[C@@H](O)[C@H]1O
List from greatest to least pEC50. Put the labels in the requested order and list them out.
I, III, II
(I: 8.49, III: 8.24, II: 7.89)

P: Nc1nc(NN=Cc2ccc(F)cc2)nc2c1ncn2[C@@H]1O[C@H](CO)[C@@H](O)[C@H]1O
Q: Nc1nc(NN=Cc2cccs2)nc2c1ncn2[C@@H]1O[C@H](CO)[C@@H](O)[C@H]1O
Could you determine which record has the numerically smaller pEC50? Candidates: P and Q Answer by stating the label of the chosen item.
Q

P: Nc1nc(NN=Cc2ccccc2)nc2c1ncn2[C@@H]1O[C@H](CO)[C@@H](O)[C@H]1O
Q: Nc1nc(NN=Cc2cccc3ccccc23)nc2c1ncn2[C@@H]1O[C@H](CO)[C@@H](O)[C@H]1O
I'd appreciate it if you could identify which of P and Q has the greater pEC50. Answer by stating the label of the chosen item.
P
(P: 8.64, Q: 8.02)

FYI, the data here is from patent US5278150A.
